Source: ChEMBL document CHEMBL4219101

Kindly state Ratio IC50 for each of the entries shown.
Species on record: Homo sapiens
procedure_summary: Inhibition of HSP90/Cdc37 interaction assessed as reversal of drug resistance by measuring ratio of IC50 for human doxorubicin-resistant NCI-H460 cells to IC50 for human NCI-H460 cells
Form field (numeric): enter value without unit.

Asked: Ratio IC50 for CCOC(=O)[C@@]1(C)CC[C@]2(C)CC[C@]3(C)C(=CC(=O)[C@@H]4[C@@]5(C)CC[C@H](OC(=O)CCC(=O)Nc6nc7ccccc7s6)C(C)(C)[C@@H]5CC[C@]43C)[C@@H]2C1 ?
Given back: 1.17

Asked: Another: CCOC(=O)[C@@]1(C)CC[C@]2(C)CC[C@]3(C)C(=CC(=O)[C@@H]4[C@@]5(C)CC[C@H](OC(=O)CCC(=O)Nc6nc7c(F)cccc7s6)C(C)(C)[C@@H]5CC[C@]43C)[C@@H]2C1
Given back: 1.23

Asked: Another: CCOC(=O)[C@@]1(C)CC[C@]2(C)CC[C@]3(C)C(=CC(=O)[C@@H]4[C@@]5(C)CC[C@H](OC(=O)CCC(=O)Nc6nc7ccc(Cl)cc7s6)C(C)(C)[C@@H]5CC[C@]43C)[C@@H]2C1
Given back: 1.13

---

Kindly state pIC50 for each of the entries shown.
Tested on: HepG2
procedure_summary: Antiproliferative activity against human HepG2 cells after 48 hrs by MTT assay
Format: functional, cell-based
cond: HepG2, 48 h
pIC50: −log10 of the molar value.

Asked: pIC50 for CC(=O)O[C@H]1CC[C@]2(C)[C@H]3C(=O)C=C4[C@@H]5C[C@@](C)(C(=O)Nc6nc7ccccc7s6)CC[C@]5(C)CC[C@@]4(C)[C@]3(C)CC[C@H]2C1(C)C ?
Given back: < 4.00

Asked: Another: COc1cccc2sc(NC(=O)[C@@]3(C)CC[C@]4(C)CC[C@]5(C)C(=CC(=O)[C@@H]6[C@@]7(C)CC[C@H](OC(C)=O)C(C)(C)[C@@H]7CC[C@]65C)[C@@H]4C3)nc12
Given back: < 4.00

Asked: Another: CC(=O)O[C@H]1CC[C@]2(C)[C@H]3C(=O)C=C4[C@@H]5C[C@@](C)(C(=O)Nc6nc7c(Cl)cccc7s6)CC[C@]5(C)CC[C@@]4(C)[C@]3(C)CC[C@H]2C1(C)C
Given back: < 4.00
